molecular target: T1, RSV F subtype A, furin-cleaved ectodomain stabilized in the prefusion conformation (DS-Cav1) (Respiratory syncytial virus subtype A, UniProt P03420 26-524); test: BLI, IgG on AHQ sensor, 100 nM antigen
T1 construct: extracellular domain; Trimeric soluble antigen; also called Prefusion subtype A
Binary call on Kd with cut-off 3 nM: strictly below means y, and equality or higher means n.

Worked cases, answers included:
binder="ADI-18959 (antibody, V domains shown, full-length IgG from yeast; also called Antibody Number 310; Ab # 310) VH: QVQLVQSGAEVKKPGASVRVSCKVYGHTLSELSMHWVRQGPEGGLEWMGAFDHEDGEGIYPQKFQGRITMTADISTDTAHMELRSLRSEDTAVYYCATPTPVGATDFWGQGTLVTVSS VL: DIRVTQSPSSLSASVGDRVTITCRASQSISSYLNWYQQKPGKAPKLLIYAASTLQRGGPSRFSGSGSGTDFTLSISSLQPEDFATYYCQQTYIIPYTFGQGTKLEIK" category=n
binder="ADI-18880 (antibody, V domains shown, full-length IgG from yeast) VH: QVQLVQSGSEVKKPGAAVKVSCKASGYIFANFGVSWVRQAPGQGLEWMGWISAYNGNTNYAQKFQGRVIMTTDTSTSTAYMELRSLRSDDTAVYYCARDPPAYAATLMDVWGKGTTVTVSS VL: EIVLTQSPLSLPVTLGQSASISCRSSQSLEHSDTNTYLTWYQQRPGQSPRRLLYKVSNRDSGVPDRFSGSGSGTDFTLKISRVEAEDVGVYYCMQGTHWPPTFGQGTKVDIK" category=y
binder="ADI-18922 (antibody, V domains shown, full-length IgG from yeast; also called Antibody Number 276; Ab # 276) VH: QVQLQESGPGRVKPSETLSLTCSVADGSISSGHYYWGWVRQPPGKGLEWIATIHDSGATYYNPSLQSRVTISVDTSKNQFSLKVNSVTAADTAVYYCASRRGSGWFFDSWGQGTLVTVSS VL: DIVLTQSPATLSVSPGERVTLSCRASHSVNYNLAWYQQKPGQAPRLLIYGSSTRATGLPARFSGSGSGTEFTLTISSLQSEDFAIYYCQQYNNWPPGGTFGQGTKVEIK" category=n
binder="ADI-18917 (antibody, V domains shown, full-length IgG from yeast; also called Antibody Number 271; Ab # 271) VH: EVQLVESGGGLVKPGGSLRLSCAASGFTFSSFGMHWVRQAPGQGLEWVASITGGSSYINYADSVKGRFTISRDNAKKSLSLQMKNLRAEDTAEYYCVRGVLPGDTGGGWFDSWGQGTLVTVSS VL: QSVLTQPPSMSGAPGQRVTISCTGTSSNIGAGYDVQWYQQFPGTAPKLLISGNNNRPSGVPDRFSGSKSGASASLAITGLQAEDEADYYCQSYDYSLNWVFGGGTKLTVL" category=y

Record ADI-18879 (antibody, V domains shown, full-length IgG from yeast) VH: EVQLLESGGEVKKPGASVKVSCRASGYTFRNYGLTWVRQAPGQGLEWMGWISAYNGNTNYAQKFQGRVTLTTDTSTSTAYMELRSLRSDDTAVYFCARDVPGHGAAFMDVWGTGTTVTVSS VL: DIQLTQSPLSLPVTLGQPASISCRSSQSLEASDTNIYLSWFQQRPGQSPRRLIYKISNRDSGVPDRFSGSGSGTHFTLRISRVEADDVAVYYCMQGTHWPPAFGQGTKVDIK : is its Kd strictly below 3 nM?
y
